Below: a set of entries, each annotated with reported Hoechst 33342 nuclear staining score, HeLa.
test_details: Hoechst 33342 nuclear staining
Type: cell-based
applied_conditions: HeLa cells, conc 3
measured_metric: Hoechst 33342 nuclear staining score, HeLa

{"substance_smiles": "COc1cc(-c2cc(-c3cccnc3)cn2S(=O)(=O)c2ccc(C(C)(C)C)cc2)cc(OC)c1OC", "measured_result": 0}
{"substance_smiles": "O=S(=O)(c1cccc(Cl)c1)n1cc(CNc2ccc(-n3ccnc3)cc2)cc1-c1ccc2c(c1)OCO2", "measured_result": 0}
{"substance_smiles": "COc1ccc(S(=O)(=O)n2cc(CNc3ccc(N4CCOCC4)cc3)cc2-c2ccc(OC)cc2OC)cc1", "measured_result": 0}
{"substance_smiles": "COc1cc(-c2cc(-c3cccnc3)cn2S(=O)(=O)c2ccc(OC(F)(F)F)cc2)cc(OC)c1OC", "measured_result": 0}

* * *

Listed next: entries and their corresponding pIC50.
System: Jurkat
test_details: MTS proliferation assay
Assay type: cell-based, human
applied_conditions: 72 h
pIC50: −log10 of the molar value.

{"molecule": "CCN1CCN(CCCNCc2cc(-c3ccc4c(c3)OCO4)n(S(=O)(=O)c3ccc(C)cc3)c2)CC1", "target_of_assay": "Jurkat", "pIC50": "< 6.00"}
{"molecule": "COc1ccc(S(=O)(=O)n2cc(-c3ccc(N)nc3)cc2-c2ccc(OC)cc2OC)cc1", "target_of_assay": "Jurkat", "pIC50": "> 6.00"}
{"molecule": "COc1cc(-c2cc(CNc3ccc(-n4ccnc4)cc3)cn2S(=O)(=O)c2ccc(C)cc2)cc(OC)c1OC", "target_of_assay": "Jurkat", "pIC50": "> 6.00"}
{"molecule": "COc1cc(-c2cc(-c3cncc(CNC(C)=O)c3)cn2S(=O)(=O)c2ccc(C)cc2)cc(OC)c1OC", "target_of_assay": "Jurkat", "pIC50": "> 6.00"}
{"molecule": "Cc1ccc(S(=O)(=O)n2cc(CNC(CN3CCN(C)CC3)c3ccccc3)cc2-c2ccc3c(c2)OCO3)cc1 (stereo not shown)", "target_of_assay": "Jurkat", "pIC50": "< 6.00"}
{"molecule": "COc1ccc(S(=O)(=O)n2cc(CNc3ccc(N4CCOCC4)cc3)cc2-c2c(OC)cc(OC)cc2OC)cc1", "target_of_assay": "Jurkat", "pIC50": "> 6.00"}
{"molecule": "COc1ccc(S(=O)(=O)n2cc(-c3cncc(C(N)=O)c3)cc2-c2ccc(OC)cc2OC)cc1", "target_of_assay": "Jurkat", "pIC50": "< 6.00"}

* * *

test_details: Hoechst 33342 nuclear staining
Assay type: cell-based
applied_conditions: MRC5 cells; conc 1 (final concentrations in μM); 24 h or 48 h incubation
measured_metric: Hoechst 33342 nuclear staining score, MRC5

{"substance_smiles": "COc1cc(-c2cc(CNc3ccc(-n4ccnc4)cc3)cn2S(=O)(=O)c2ccc(C)cc2)cc(OC)c1OC", "measured_result": 0}
{"substance_smiles": "Cc1ccc(S(=O)(=O)n2cc(-c3cncc(C(N)=O)c3)cc2-c2cccs2)cc1", "measured_result": 0}
{"substance_smiles": "Cc1ccc(S(=O)(=O)n2cc(-c3ccc(C#N)cc3)cc2-c2cccs2)cc1", "measured_result": 0}

* * *

test_details: Hoechst 33342 nuclear staining
Type: cell-based
applied_conditions: H460 cells; conc 1 (final concentrations in μM); 24 h or 48 h incubation
Procedure: This assay is performed in 96 well tissue culture plates. Appropriate number of cells (adherent cells: 3-5*10^3, suspension cells: 8-10*10^3) are being seeded out in 80 μl complete medium. […] The assay plates are then further incubated for 30 min and subsequently analyzed with a standard inverted fluorescence microscope. The readout allows the determination of the fraction of apoptotic nuclei as well as other morphological criteria specific for apoptosis as a function of the treatment. […]
measured_metric: Hoechst 33342 nuclear staining score, H460

{"substance_smiles": "Cc1ccc(S(=O)(=O)n2cc(-c3ccc(C#N)cc3)cc2-c2cccs2)cc1", "measured_result": 0}
{"substance_smiles": "COc1cc(-c2cc(CNc3ccc(-n4ccnc4)cc3)cn2S(=O)(=O)c2ccc(C)cc2)cc(OC)c1OC", "measured_result": 0}
{"substance_smiles": "Cc1ccc(S(=O)(=O)n2cc(-c3cncc(C(N)=O)c3)cc2-c2cccs2)cc1", "measured_result": 0}

* * *

test_details: Hoechst 33342 nuclear staining;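 further: apoptotic nuclei scored 0 none 1 weak under 50% of cells 2 strong over 50% of cells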
Format: cell-based
applied_conditions: HeLa cells; conc 10 (final concentrations in μM); 24 h or 48 h incubation
measured_metric: Hoechst 33342 nuclear staining score, HeLa

{"substance_smiles": "Cc1ccc(S(=O)(=O)n2cc(CNc3ccc(N4CCOCC4)cc3N3CCOCC3)cc2-c2ccc3c(c2)OCO3)cc1", "measured_result": 0}
{"substance_smiles": "Cc1ccc(S(=O)(=O)n2cc(-c3cncnc3)cc2-c2ccc3c(c2)OCO3)cc1", "measured_result": 0}
{"substance_smiles": "Cc1ccc(S(=O)(=O)n2cc(CNCCc3ccccc3)cc2-c2ccc3c(c2)OCO3)cc1", "measured_result": 0}
{"substance_smiles": "CCN1CCN(c2ccc(NCc3cc(-c4ccc5c(c4)OCO5)n(S(=O)(=O)c4ccc(C)cc4)c3)cc2)CC1", "measured_result": 0}
{"substance_smiles": "Cc1ccc(S(=O)(=O)n2cc(CNc3ccc(-n4ccnc4)cc3)cc2-c2ccc3c(c2)OCO3)cc1", "measured_result": 0}
{"substance_smiles": "Cc1ccc(S(=O)(=O)n2cc(CNc3ccc(N4CCOCC4)c(Cl)c3)cc2-c2ccc3c(c2)OCO3)cc1", "measured_result": 0}
{"substance_smiles": "Cc1ccc(S(=O)(=O)n2cc(CNc3ccc(CN4CCOCC4)cc3)cc2-c2ccc3c(c2)OCO3)cc1", "measured_result": 0}

* * *

Overview of recorded Hoechst 33342 nuclear staining score, H460 for various compounds
test_details: Hoechst 33342 nuclear staining;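 further: apoptotic nuclei scored 0 none 1 weak under 50% of cells 2 strong over 50% of cells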
Type: cell-based
applied_conditions: H460 cells, conc 1
measured_metric: Hoechst 33342 nuclear staining score, H460

{"substance_smiles": "COc1cc(-c2cc(-c3cccnc3)cn2S(=O)(=O)c2cn(C)cn2)cc(OC)c1OC", "measured_result": 0}
{"substance_smiles": "COc1cc(-c2cc(-c3cccnc3)cn2S(=O)(=O)c2ccc(OC(F)(F)F)cc2)cc(OC)c1OC", "measured_result": 0}

* * *

test_details: Hoechst 33342 nuclear staining;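 further: apoptotic nuclei scored 0 none 1 weak under 50% of cells 2 strong over 50% of cells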
Type: cell-based
applied_conditions: HeLa cells, conc 0.3
measured_metric: Hoechst 33342 nuclear staining score, HeLa

{"substance_smiles": "COc1cc(-c2cc(CNc3ccc(-c4nnn[nH]4)cc3)cn2S(=O)(=O)c2ccc(C)cc2)cc(OC)c1OC", "measured_result": 0}
{"substance_smiles": "COc1ccc(S(=O)(=O)n2cc(CNc3ccc(N4CCOCC4)cc3)cc2-c2ccc(OC)cc2OC)cc1", "measured_result": 0}
{"substance_smiles": "COc1ccc(S(=O)(=O)n2cc(CNc3ccc(N4CCOCC4)cc3)cc2-c2cc(OC)ccc2OC)cc1", "measured_result": 0}
{"substance_smiles": "O=S(=O)(c1cccc(Cl)c1)n1cc(CNc2ccc(-n3ccnc3)cc2)cc1-c1ccc2c(c1)OCO2", "measured_result": 0}
{"substance_smiles": "COc1cc(-c2cc(CNc3ccc(S(N)(=O)=O)cc3)cn2S(=O)(=O)c2ccc(C)cc2)cc(OC)c1OC", "measured_result": 0}
{"substance_smiles": "COc1cc(-c2cc(CNc3ccc4[nH]nnc4c3)cn2S(=O)(=O)c2ccc(C)cc2)cc(OC)c1OC", "measured_result": 0}
{"substance_smiles": "COc1ccc(S(=O)(=O)n2cc(-c3ccc(N)nc3)cc2-c2ccc(OC)cc2OC)cc1", "measured_result": 0}
{"substance_smiles": "COc1cc(-c2cc(-c3cccnc3)cn2S(=O)(=O)c2cccs2)cc(OC)c1OC", "measured_result": 0}
{"substance_smiles": "COc1ccc(S(=O)(=O)n2cc(-c3cncc(C(N)=O)c3)cc2-c2ccccc2OC)cc1", "measured_result": 0}
{"substance_smiles": "COc1cc(-c2cc(-c3cncc(CN)c3)cn2S(=O)(=O)c2ccc(C)cc2)cc(OC)c1OC", "measured_result": 0}
{"substance_smiles": "COc1cc(-c2cc(-c3cccnc3)cn2S(=O)(=O)c2ccc(Cl)cc2)cc(OC)c1OC", "measured_result": 0}
{"substance_smiles": "COc1cc(-c2cc(-c3cccnc3)cn2S(=O)(=O)c2ccc(OC(F)(F)F)cc2)cc(OC)c1OC", "measured_result": 0}
{"substance_smiles": "COc1cc(-c2cc(-c3cccnc3)cn2S(=O)(=O)c2ccccc2Cl)cc(OC)c1OC", "measured_result": 0}

* * *

test_details: Hoechst 33342 nuclear staining;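 further: apoptotic nuclei scored 0 none 1 weak under 50% of cells 2 strong over 50% of cells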
Assay type: cell-based
applied_conditions: Jurkat cells, conc 3
measured_metric: Hoechst 33342 nuclear staining score, Jurkat

{"compound": "COc1cc(-c2cc(-c3cncc(C(=O)O)c3)cn2S(=O)(=O)c2ccc(C)cc2)cc(OC)c1OC.N [Example 66]", "measured_result": 0}
